- assay: in vitro
- measurement context: rat, rat hippocampal neurons
quantity: selectivity ratio at 5 h

                                        mol                  quantity  obs_value
0  C=C(C)[C@@H]1CCC(C)=C[C@H]1c1c(O)cc(CC2CN(C(C)=O)C2)cc1O  selectivity ratio at 5 h       7500
1  C=C(C)[C@@H]1CCC(C)=C[C@H]1c1c(O)cc(CC2CN(C(=O)OCC)C2)cc1O  selectivity ratio at 5 h        900

###

- assay: Toxicity in rat hippocampal neurons assessed as neuronal viability after 5 hrs by carboxyfluorescein diacetate dye based fluorimetric analysis
- Set-up: species or system Hippocampal neurone
- measurement context: read-out: TC50
quantity: CC50 at 5 h (µM)

                                        mol  value_relation_sign  obs_value
0  C=C(C)[C@@H]1CCC(C)=C[C@H]1c1c(O)cc(CCn2ccnn2)cc1O                    >        100
1  C=C(C)[C@@H]1CCC(C)=C[C@H]1c1c(O)cc(CC2CN(C(C)=O)C2)cc1O                    =        300
2  C=C(C)[C@@H]1CCC(C)=C[C@H]1c1c(O)cc(CCCCC)cc1O                    =         33
3  C=C(C)[C@@H]1CCC(C)=C[C@H]1c1c(O)cc(CC2CN(C(=O)OCC)C2)cc1O                    >        100
